For each record, write down the corresponding melting point.

Recorded results for 10 compounds are shown here.
[
  {
    "Compound": "CNC(=O)[C@@H](C[C@H](O)[C@H](CC1CCCCC1)NC(=O)OC(C)(C)C)C(C)(C)O",
    "melting point": "174 to 175 °C"
  },
  {
    "Compound": "CCOC(=O)c1cn(-c2c[nH]nn2)c2cc(F)c(F)cc2c1=O",
    "melting point": "298 °C"
  },
  {
    "Compound": "CN(Cc1cc2c(=O)c(C(=O)NCc3ccc(Cl)cc3)cn(C)c2o1)CC(O)CSc1nnc(N)s1 (stereo not drawn)",
    "melting point": "200 to 204 °C"
  },
  {
    "Compound": "N#Cc1ccc2c(c1)CCC(CO)O2 (stereo not drawn)",
    "melting point": "85 °C"
  },
  {
    "Compound": "Nn1c(C(F)(F)F)cc(=O)n(-c2ccc(O)cc2)c1=O",
    "melting point": "150 to 155 °C"
  },
  {
    "Compound": "COc1ccc(C2=CCCC(=O)O2)cc1",
    "melting point": "77.4 to 79.8 °C"
  },
  {
    "Compound": "CCOC(=O)/C=C/c1ccc(OCOC)cc1Oc1ccc(C(F)(F)F)cn1",
    "melting point": "69 to 70 °C"
  },
  {
    "Compound": "COc1cc(CCNC(C)=O)c(C(=O)Cc2cc(OC)c(OC)cc2[N+](=O)[O-])cc1OC",
    "melting point": "142 to 144 °C"
  },
  {
    "Compound": "CCn1nc(-c2ccc(OC)cc2)cc(C(=O)OC)c1=O",
    "melting point": "76.5 to 77.6 °C"
  },
  {
    "Compound": "Cc1cc(-c2n[nH]c(Cc3ccccc3)n2)sc1C(=O)NCc1ccccc1",
    "melting point": "168 to 171 °C"
  }
]

Below are some compounds; for each one, tell me its melting point.
1. CC(C)Oc1ccc(-c2nn(C(C)c3oc4cccc(N5CCOCC5)c4c(=O)c3-c3ccccc3)c3ncnc(N)c23)cc1F (stereo not drawn)
2. CCN(CC)C(=O)Cc1ccc(C(=O)c2ccc(Cl)cc2)n1C
3. CS(=O)(=O)c1ccc(-c2cc([N+](=O)[O-])sc2-c2ccc(F)cc2)cc1
4. O=C(O)Cc1ncc2c(n1)-c1ccc(Cl)cc1C(c1ccccc1F)=NC2
5. CN(C)CCOc1ccc2[nH]c(C(=O)N3CC(CCl)c4c3cc(OCc3ccccc3)c3ncccc43)cc2c1 (stereo not drawn)
6. Cc1cc(C2=c3ccc(=C4C(=O)c5ccccc5C4=O)cc3OC2=O)cc(C)c1N

stdout:
211 to 214 °C
82 to 85 °C
155 to 156 °C
138 to 140 °C
176 to 179 °C
> 250 °C

Below are some compounds; for each one, tell me its melting point.
1. CC(F)(C(=O)O)c1ccc(OS(=O)(=O)C(F)(F)F)cc1 (stereo not drawn)
2. CC(C)=CC(=O)Nc1c(C(O)(C(F)(F)F)C(F)(F)F)ccc2ccccc12

stdout:
1: 91 to 94 °C; 2: 135 to 137 °C
